READOUT NAME: glass transition temperature (°C)

Examples from the recorded data:
*C(=O)Nc1ccc(Oc2ccc(NC(=O)c3ccc4c(c3)C(=O)N(c3ccc(NC(=O)Nc5ccc(N6C(=O)c7ccc(*)cc7C6=O)cc5)cc3)C4=O)cc2)cc1 (repeat unit) ... 205.00
*CCCCCCNC(=O)CCc1ccc(CC(=O)N*)cc1 (repeat unit) ... 87.00
*C(=O)Nc1ccc(-c2ccc(NC(=O)c3ccc4c(c3)C(=O)N(c3ccc(Oc5cccc6c(N7C(=O)c8ccc(*)cc8C7=O)cccc56)cc3)C4=O)c(OC)c2)cc1OC (repeat unit) ... 304.00

[I] *C1C(*)C2CC1C(C(=O)OCC13CC4CC(CC(C4)C1)C3)C2C(=O)OCC12CC3CC(CC(C3)C1)C2 (repeat unit)
[II] *Oc1ccc(C(CCC)(CCC)c2ccc(OC(*)=O)cc2)cc1 (repeat unit) [Poly[4,4-heptane bis(4-phenyl)carbonate]]
[III] *CC(*)(C)C(=O)OCc1ccc2c(c1)c1ccccc1n2CCCCCCCCCCCCCCCC (repeat unit)
Query: Please put the entries in order of rising glass transition temperature. A complete answer lists every label in the requested sequence.
Response: III, II, I
(III: 23.00 °C, II: 148 °C, I: 328.00 °C)

[P] *c1cccc(N2C(=O)C3CCC(C4CCC5C(=O)N(*)C(=O)C5C4)CC3C2=O)c1 (repeat unit)
[Q] *CCN(CCOC(=O)c1ccc(C(=O)O*)c(OC)c1)c1ccc(/N=N/c2ccc(-c3nc4ccc([N+](=O)[O-])cc4n3CC)cc2)cc1 (repeat unit)
[R] *CC(*)C(=O)Oc1ccc(C(=O)Oc2ccc(OC(=O)c3ccc(OCCCCC)cc3)cc2)cc1 (repeat unit)
[S] *CCOC(=O)CCCCCCCC(=O)O* (repeat unit)
Query: Order field: glass transition temperature | Direction: descending (largest first) Form entry: ranked labels (order as requested).
Response: P, Q, R, S

====

READOUT NAME: glass transition temperature (°C)

*C(=O)c1ccc2c(c1)C(=O)N(c1cc(N3C(=O)c4ccc(*)cc4C3=O)ccc1OCC(F)(F)C(F)(F)C(F)(F)C(F)(F)C(F)(F)C(F)(F)F)C2=O (repeat unit) ... 229.00
*Oc1cccc2c1C(=O)N(c1ccc(Oc3ccc(Oc4cccc(N5C(=O)c6cccc(*)c6C5=O)c4)cc3)cc1)C2=O (repeat unit) ... 263.00
*Oc1ccc2c(c1)C(=O)N(c1cc(N3C(=O)c4ccc(*)cc4C3=O)cc(C(F)(F)F)c1)C2=O (repeat unit) ... 274.00
*C(=O)Nc1ccc2ccccc2c1-c1c(NC(=O)c2ccc3c(c2)C(=O)N(c2ccc(Cc4ccc(N5C(=O)c6ccc(*)cc6C5=O)cc4)cc2)C3=O)ccc2ccccc12 (repeat unit) ... 285.40
*c1cccc2c1C(=O)N(c1ccc(C3(c4ccc(N5C(=O)c6cccc(*)c6C5=O)c(C)c4)CCCCC3)cc1C)C2=O (repeat unit) ... 302.50
*Oc1ccc(Oc2ccc3c(c2)C(=O)N(c2ccc(Oc4ccc5ccccc5c4-c4c(Oc5ccc(N6C(=O)c7ccc(*)cc7C6=O)cc5C(F)(F)F)ccc5ccccc45)c(C(F)(F)F)c2)C3=O)cc1 (repeat unit) ... 256.00

====

READOUT NAME: glass transition temperature (°C)

Reference set, count: 2
*CC(*)(C)C(=O)OCCC[Si](OC)(OC)OC (repeat unit) ... 9.00
*C(=O)Nc1ccc(Oc2ccc(NC(=O)c3ccc4c(c3)C(=O)N(c3ccc(Oc5ccc(C6(c7ccc(Oc8ccc(N9C(=O)c%10ccc(*)cc%10C9=O)cc8)cc7)NC(=O)c7ccccc76)cc5)cc3)C4=O)cc2)cc1 (repeat unit) ... 325.00

[P] *c1ccc(Oc2ccc(S(=O)(=O)c3ccc(Oc4ccc(N5C(=O)c6ccc(Oc7ccc(Oc8ccc9c(c8)C(=O)N(*)C9=O)cc7)cc6C5=O)cc4)cc3)cc2)cc1 (repeat unit)
[Q] *CC(CO*)(CS(=O)(=O)CCCC)CS(=O)(=O)CCCC (repeat unit)
[R] *CCCOc1ccc(OCCCc2nnc(-c3ccc(-c4nnc(*)o4)cc3)o2)c(C)c1 (repeat unit)
[S] *CNC(=O)OCc1cocc1COC(=O)NCc1ccc(C(C)(C)c2ccc(*)o2)o1 (repeat unit)
Query: Rank the 4 compounds: largest glass transition temperature first, smallest last. Answer by listing the labels in the order asked for.
Response: P, R, Q, S
(P: 201.00 °C, R: 112.00 °C, Q: 66.00 °C, S: 25.00 °C)

[P] *CC(CC(*)(C#N)C#N)c1ccc(F)cc1 (repeat unit)
[Q] *c1ccc(C(=O)OCCCCCCCCOc2ccc(/C=C/C(=O)/C=C/c3ccc(OCCCCCCCCOC(=O)c4ccc(-c5nnc(*)o5)cc4)cc3)cc2)cc1 (repeat unit)
[R] *CCOCCOCCOc1cccc(NC(=O)c2ccc(C(=O)Nc3cccc(O*)c3)cc2)c1 (repeat unit)
[S] *CC(*)(CC(=O)OCCCC)C(=O)OCCCC (repeat unit)
Query: Sequence the entries by glass transition temperature, beginning with the highest number. Output the labels ranked as instructed.
Response: P, R, Q, S
(P: 180.00 °C, R: 116.00 °C, Q: 59.00 °C, S: 24.00 °C)

[1] *C(=O)NNC(=O)c1ccc([Si](c2ccccc2)(c2ccccc2)c2ccc(C(=O)NNC(=O)c3ccc(*)o3)cc2)cc1 (repeat unit)
[2] *Oc1cccc(OC(=O)c2ccc(OC(=O)c3cccc(C(=O)Oc4ccc(C(*)=O)cc4)c3)cc2)c1 (repeat unit)
[3] *CCCC(O)CN(CCCC)c1ccc(C#Cc2ccc(S(*)(=O)=O)cc2)cc1 (repeat unit)
Query: Arrange these 3 compounds in increasing order of glass transition temperature. Reply with the labels, ordered as the question asks.
Response: 3, 2, 1
(3: 48.00 °C, 2: 158.00 °C, 1: 252.00 °C)

[I] *C(=O)c1cccc(C(=O)c2ccc3c(c2)C(=O)N(c2ccc(Oc4ccc(S(=O)(=O)c5ccc(Oc6ccc(N7C(=O)c8ccc(*)cc8C7=O)cc6)cc5)cc4)cc2)C3=O)c1 (repeat unit)
[II] *Oc1ccc(OC(=O)c2ccc(C(*)=O)cc2Sc2ccc3ccccc3c2)cc1 (repeat unit)
Query: Which entry has a larger number for glass transition temperature, I or II ? Returns: label corresponding to the selected item.
Response: I

[a] *Oc1ccc(NC(=C(C#N)C#N)c2ccc(-c3ccc(C(Nc4ccc(*)cc4)=C(C#N)C#N)cc3)cc2)cc1 (repeat unit)
[b] *CC(*)c1ccc(C(=O)OCCN(C)C)cc1 (repeat unit)
Query: Pick one: a or b . Which has the bigger glass transition temperature number? Answer with the label corresponding to your selection.
Response: a
(a: 220.00 °C, b: 91.00 °C)

[a] */C=C(\C#N)C(=O)NC1CCCCC1NC(=O)/C(C#N)=C/c1ccc(/C=C/c2ccc(N(CC)Cc3cccc(CN(CC)c4ccc(/C=C/c5ccc(*)s5)cc4)c3)cc2)s1 (repeat unit)
[b] *CC(*)(CC(=O)Oc1ccc(OCCC)cc1)C(=O)Oc1ccc(OCCC)cc1 (repeat unit)
Query: // pick larger glass transition temperature from pair: a vs b To answer, give the label that identifies your chosen option.
Response: a
(a: 157.00 °C, b: 94.50 °C)

[a] *c1ccc2c(c1)C(=O)N(c1cc(OCCCC)cc(N3C(=O)c4ccc(C(*)(C(F)(F)F)C(F)(F)F)cc4C3=O)c1)C2=O (repeat unit)
[b] *Oc1ccc(C(C)(CC)c2ccc(OC(*)=O)cc2)cc1 (repeat unit)
Query: For the two items a and b , which reports the higher glass transition temperature value? // output: label of the selected item
Response: a
(a: 246.00 °C, b: 136.00 °C)
